B1: Pistol ribozyme (parent)
chain: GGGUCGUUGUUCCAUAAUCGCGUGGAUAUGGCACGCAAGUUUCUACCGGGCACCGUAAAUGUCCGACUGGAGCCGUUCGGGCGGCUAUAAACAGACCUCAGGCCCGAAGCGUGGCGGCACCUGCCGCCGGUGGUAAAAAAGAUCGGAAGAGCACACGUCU

- Variants of: B1
- assay: aptazyme ON/OFF ratio, guanine; higher = stronger switching; co-transcriptional cleavage with and without guanine
value type: aptazyme ON/OFF ratio
Please reply with the value in numeric form only.

Examples with their reported aptazyme ON/OFF ratio follow.
mutant: U7A U8C G9A U11A C12A C13U
observed measurement: 1.17
//
mutant: U8G G9A U10G U11C C12A C13U
observed measurement: 1.18
//
mutant: U7C U8C U11G
observed measurement: 1.31
//
mutant: U7G U8C G9C U10C U11C C12U
observed measurement: 1.02
//
mutant: U7C U8G G9C U10A U11C C12G C13G
observed measurement: 1.24

Below: the item to evaluate.
aptazyme ON/OFF ratio reading for U7A U8C G9A U10A C12A C13U : 1.36
